- System: K4 kissing-loop RNA reporter;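 also: bound reporter read as fluorescence of individual clusters on recovered sequencing chips by microscopy, with normalized cluster intensities fitted with a binding model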
- ASSAY_NAME: apparent KD of K4 kissing-loop reporter; higher = weaker reporter binding
- MEASUREMENT_SETUP: Eterna round: R107; input ligand: FMN 200 uM
TEST_READOUT: apparent KD of K4 kissing-loop reporter (nM)
Give bare numbers, in nM.

For the 6 sequences below, give their apparent KD of K4 kissing-loop reporter values.
1. GAUAUAGAGGCGGCCGCCACUAGUGAUGUUAGUGAUGUUAGAUAGAGAAUAGAACAGAGGUGGGAUAGGACCGGGCCAGAUAGAG [whbob_SS_Tryp_B_w34]
2. UUUCUACCGGGAAGGAGCGUGAAUGAUAAUGGAUAUAGUGAUGUUAUAUAUAAGAACGAAUCGCAGGUAGGUCGCCCGGAUGACU [SSArgB.S]
3. GGUAGCAUGGCGGCCGCCACUUACUUCAAUAGGAGUGAUGUUCCUAUUACUAGUAGUGAAAUAAUAAGGACCGGGCCAUGCUACC
4. AAUUUAUUAACUGAUACCAGACUUUAGCGCGUUUAUAAGUCAAGUGAUGUUUGACUAAUUGUCCCUUGGCAGCAGUAUUUAUUAA [JR_SSTheophyB_Sub021]
5. AAAUAAAGCAGUCAUCCAGUGAUGUUGGAAGGAGCGUGCGAAAGCACAGGUAGGUCGCCAAAACCUAAUAAUGGCUGCUAAAUAA [#SwitchBubble 2 #K4Early]
6. CUCGACACGGGAAGGAGCGGUUGCGUGUGCCAGUGAUGUUGGAUCAGCAGACUGCCCGGUAGCCAGGUAGGUCGCCUGUGCUGAG [Esbeescexe]

Result:
[90.6, 311, 103, 233, 170, 219]
